B1: ANKRD40 (parent)
chain: VCCCELGVNPDQVEKIRKLPNTLL

variants of: B1; test: protein stability index of a GFP-peptide fusion (GPS, HEK-293T) (PSI 1-6); higher = more stable; details: c terminus: a fixed tail appended;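 also: lentivirally expressed fusions sorted by FACS into six bins by GFP to DsRed ratio, PSI derived from sequencing read proportions per bin multiplied by bin number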

| Construct Sequence | protein stability index |
| --- | --- |
| VTCCELGVNPDQVEKIRKLPNTLL [C2T] | 2.72 |
| VCCCELGVNPDQVEKIRKLPNSLL [T22S] | 1.79 |
| VCCCELLVNPDQVEKIRKLPNTLL [G7L] | 2.3 |
| VCNCELGVNPDQVEKIRKLPNTLL [C3N] | 1.82 |
| VLCCELGVNPDQVEKIRKLPNTLL [C2L] | 2.04 |
| VCCCELGHNPDQVEKIRKLPNTLL [V8H] | 2.17 |
| VCCCELGVNPDQVEKIRKFPNTLL [L19F] | 1.57 |
| VCCCELGVNPDQFEKIRKLPNTLL [V13F] | 1.4 |
| VCCCELGVNPDQVEKIRKYPNTLL [L19Y] | 1.76 |
| VCCCELGVKPDQVEKIRKLPNTLL [N9K] | 2.33 |
| VCCCELEVNPDQVEKIRKLPNTLL [G7E] | 2.13 |
| VCCCELGVNPDQVEKIRILPNTLL [K18I] | 1.43 |
| VCCCELQVNPDQVEKIRKLPNTLL [G7Q] | 2.02 |
| VCCCELGVNPDQVEKIRKWPNTLL [L19W] | 2.73 |
| VCCCELDVNPDQVEKIRKLPNTLL [G7D] | 1.96 |
| WCCCELGVNPDQVEKIRKLPNTLL [V1W] | 1.79 |
| VCCCELGVNPDQVEKIRKLPNCLL [T22C] | 1.72 |
| VCCCELGVNPDQTEKIRKLPNTLL [V13T] | 1.76 |
| VCCYELGVNPDQVEKIRKLPNTLL [C4Y] | 1.85 |
| VCCCELGVNPDQVEKIVKLPNTLL [R17V] | 1.82 |
| VCCCELGVNPDQVEKKRKLPNTLL [I16K] | 2.53 |
| VCCCELGVNPDQVEKIRKLPNYLL [T22Y] | 1.63 |
| VCCAELGVNPDQVEKIRKLPNTLL [C4A] | 1.87 |
| VCCCELGVNWDQVEKIRKLPNTLL [P10W] | 1.88 |
| VCMCELGVNPDQVEKIRKLPNTLL [C3M] | 2.29 |
| VCCCELGENPDQVEKIRKLPNTLL [V8E] | 2.39 |
| VCCCELGANPDQVEKIRKLPNTLL [V8A] | 1.86 |
| VGCCELGVNPDQVEKIRKLPNTLL [C2G] | 2.73 |
| VCCCELGVNPDQVEKIRKLPNTFL [L23F] | 1.51 |
| VCCCELGVNPDQVEKIMKLPNTLL [R17M] | 1.9 |
| VCYCELGVNPDQVEKIRKLPNTLL [C3Y] | 2.27 |
| VCCCELGVNPDQVDKIRKLPNTLL [E14D] | 1.66 |
| VCCCELGVNPDQVEKIRKLPNTLE [L24E] | 2.62 |
| VCCCELGVNPDQVEKIRKLPDTLL [N21D] | 2.43 |
| VCCCELGVNPDQVEKIRKLPNTLH [L24H] | 2.02 |
| VCCCELGVNPDQVEKIRKPPNTLL [L19P] | 1.91 |
| VCCCELGVNPDQVEKIRKAPNTLL [L19A] | 2.12 |
| YCCCELGVNPDQVEKIRKLPNTLL [V1Y] | 1.85 |
| ECCCELGVNPDQVEKIRKLPNTLL [V1E] | 2.83 |
| VCCCELGVNQDQVEKIRKLPNTLL [P10Q] | 2.02 |
| VCCCELGVIPDQVEKIRKLPNTLL [N9I] | 1.88 |
| VCCCELGVNPDQVEYIRKLPNTLL [K15Y] | 2.09 |
| VCCGELGVNPDQVEKIRKLPNTLL [C4G] | 2.12 |
| VCCCELGVNPDQVEKIRKLQNTLL [P20Q] | 1.87 |
| VCCCELGVNPDQVEKIRDLPNTLL [K18D] | 2.08 |
| VCCCELGKNPDQVEKIRKLPNTLL [V8K] | 2.2 |

These entries and their values trace back to the supplement of paper PMC10567573.
